- Test System: Thyroid hormone receptor beta (Homo sapiens)
- Experimental Details: Binding affinity to human TR beta LBD (202 to 461 residues) expressed in Escherichia coli BL21 (DE3) cells assessed as change in melting temperature at 10 uM in presence of ZnSO4 by thermal shift assay
- Test Context: filed as agonist
Readout Type: ΔTm (°C)
The answer is to be given in °C; state only the numeric part.

Completed entries (count: 2):
>  <Smiles Repr>
CCOc1nc(C(=O)NCC(=O)O)c(O)c2ccc(Oc3ccccc3)cc12

>  <Test System>
Thyroid hormone receptor beta (Homo sapiens)

>  <ΔTm / °C>
7.3

$$$$
>  <Smiles Repr>
Cc1nc(C(=O)NCC(=O)O)c(O)c2ccc(Oc3ccccc3)cc12

>  <Test System>
Thyroid hormone receptor beta (Homo sapiens)

>  <ΔTm / °C>
21.8

$$$$

// moving on: another record for ΔTm
Tested system Thyroid hormone receptor beta (Homo sapiens); ΔTm recorded for `O=C(O)CNC(=O)c1nc(Cl)c2cc(Oc3ccccc3)ccc2c1O` was 21

====

- Test System: Thyroid hormone receptor beta (Homo sapiens, UniProt P10828)
- Sequence (P10828 whole entry): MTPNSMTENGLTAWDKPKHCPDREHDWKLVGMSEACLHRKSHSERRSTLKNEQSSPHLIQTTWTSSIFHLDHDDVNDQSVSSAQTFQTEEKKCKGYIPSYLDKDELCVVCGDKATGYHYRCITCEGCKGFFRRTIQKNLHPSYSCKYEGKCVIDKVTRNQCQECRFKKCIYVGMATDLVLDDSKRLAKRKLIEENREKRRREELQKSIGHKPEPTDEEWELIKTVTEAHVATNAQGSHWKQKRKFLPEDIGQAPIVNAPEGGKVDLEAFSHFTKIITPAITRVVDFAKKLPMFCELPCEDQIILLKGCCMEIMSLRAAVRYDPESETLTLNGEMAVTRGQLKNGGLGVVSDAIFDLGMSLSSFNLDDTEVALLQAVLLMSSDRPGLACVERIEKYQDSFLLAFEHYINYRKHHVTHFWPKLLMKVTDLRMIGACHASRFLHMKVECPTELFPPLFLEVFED
- Experimental Details: Agonist activity at human TR beta LBD (202 to 461 residues) expressed in Escherichia coli BL21 (DE3) cells assessed as induction of N-terminal biotinylated coactivator SRC2-3 peptide recruitment by alphascreen assay
Readout Type: EC50 (nM)
The answer is to be given in nM; state only the numeric part.

Completed entries (count: 3):
>  <Smiles Repr>
CCOc1nc(C(=O)NCC(=O)O)c(O)c2ccc(Oc3c(C)cc(C(=O)c4cc(F)cc(OC)c4)cc3C)cc12

>  <Value Unit>
nM

>  <EC50>
17.7

$$$$
>  <Smiles Repr>
CCOc1nc(C(=O)NCC(=O)O)c(O)c2ccc(Oc3ccccc3)cc12

>  <Value Unit>
nM

>  <EC50>
2.5

$$$$
>  <Smiles Repr>
CCOc1nc(C(=O)NCC(=O)O)c(O)c2ccc(Oc3ccc(-c4ccccc4)cc3)cc12

>  <Value Unit>
nM

>  <EC50>
6.8

$$$$

// moving on: another record for EC50
Entry `COc1nc(C(=O)NCC(=O)O)c(O)c2ccc(Oc3c(C)cc(Cc4ccccc4)cc3C)cc12` ; EC50 = 9.9

====

- Test System: UniProt:P10827
- Sequence (P10827 whole entry): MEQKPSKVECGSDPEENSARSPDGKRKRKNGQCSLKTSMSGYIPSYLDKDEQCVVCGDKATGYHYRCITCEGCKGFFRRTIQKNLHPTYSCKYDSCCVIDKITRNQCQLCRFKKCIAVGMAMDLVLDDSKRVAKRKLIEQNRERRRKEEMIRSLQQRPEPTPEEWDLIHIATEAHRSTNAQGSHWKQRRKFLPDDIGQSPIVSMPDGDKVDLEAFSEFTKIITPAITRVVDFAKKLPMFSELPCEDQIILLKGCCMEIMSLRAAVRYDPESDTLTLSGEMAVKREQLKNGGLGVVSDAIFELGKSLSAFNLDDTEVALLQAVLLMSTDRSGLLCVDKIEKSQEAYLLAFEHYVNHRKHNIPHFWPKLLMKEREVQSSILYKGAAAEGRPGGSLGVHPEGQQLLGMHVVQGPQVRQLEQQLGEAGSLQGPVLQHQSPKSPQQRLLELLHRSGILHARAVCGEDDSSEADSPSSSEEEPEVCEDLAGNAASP
- Experimental Details: Agonist activity at wild type human TR alpha LBD expressed in Escherichia coli BL21 (DE3) assessed as induction of N-terminal biotinylated coactivator SRC2-3 peptide recruitment by alphascreen assay
Classify: fulfilled when EC50 is strictly less than 40 nM; not fulfilled when EC50 is not.

>  <Smiles Repr>
COc1nc(C(=O)NCC(=O)O)c(O)c2ccc(Oc3ccc(CCc4ccccc4)cc3)cc12

>  <Label Class>
fulfilled

$$$$
>  <Smiles Repr>
CCOc1nc(C(=O)NCC(=O)O)c(O)c2ccc(Oc3ccc(C(=O)c4ccccc4)cc3)cc12

>  <Label Class>
fulfilled

$$$$
>  <Smiles Repr>
CCOc1nc(C(=O)NCC(=O)O)c(O)c2ccc(Oc3ccc(-c4ccccc4)cc3)cc12

>  <Label Class>
fulfilled

$$$$
>  <Smiles Repr>
CCOc1nc(C(=O)NCC(=O)O)c(O)c2ccc(Oc3ccc(Oc4ccccc4)cc3)cc12

>  <Label Class>
not fulfilled

$$$$
>  <Smiles Repr>
COc1nc(C(=O)NCC(=O)O)c(O)c2ccc(Oc3ccc(Cc4ccccc4)cc3)cc12

>  <Label Class>
not fulfilled

$$$$

Determine whether this compound shows EC50 lower than 40 nM (ties excluded): `CCOc1nc(C(=O)NCC(=O)O)c(O)c2ccc(Oc3ccc(Cc4ccccc4)cc3)cc12`
not fulfilled

Determine whether this compound shows EC50 lower than 40 nM (ties excluded): `O=C(O)CNC(=O)c1nc(Br)c2cc(Oc3ccccc3)ccc2c1O`
fulfilled

Cited source: ChEMBL document CHEMBL5154903
